experimental.system: COPS5 (UniProt Q92905)
Sequence (Q92905 whole entry, looked up, the tested form may be a part): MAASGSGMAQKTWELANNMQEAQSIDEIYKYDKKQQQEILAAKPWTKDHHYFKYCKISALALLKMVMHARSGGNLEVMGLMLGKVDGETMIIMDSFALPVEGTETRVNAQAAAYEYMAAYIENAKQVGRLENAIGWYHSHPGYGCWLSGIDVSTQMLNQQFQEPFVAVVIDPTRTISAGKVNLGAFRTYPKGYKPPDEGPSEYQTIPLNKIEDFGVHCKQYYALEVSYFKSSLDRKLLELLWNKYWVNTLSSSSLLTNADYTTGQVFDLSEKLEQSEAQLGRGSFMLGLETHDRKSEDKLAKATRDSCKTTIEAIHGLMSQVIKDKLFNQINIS
test.summary: log2 ratio of Biotin-Ahx-Ub-VS probe labelling (fragment/DMSO); higher = less target engagement (more negative = stronger competition), active = hit call of the paper (q ≤ 0.05, log2 ratio ≤ -1)
measurement.setup: compound concentration: 200 uM; treatment time: 3 h
measured.attribute: log2 ratio of Biotin-Ahx-Ub-VS probe labelling

[
  {
    "compound": "CC(NC(=O)CCl)c1ccc2[nH]ncc2c1 (configuration not stated)",
    "obs.value": -0.00941
  },
  {
    "compound": "Cl.O=C(CCl)N[C@H]1C[C@@H](n2cccn2)C1",
    "obs.value": -0.0476
  },
  {
    "compound": "Cc1cc(NC(=O)CCl)n(-c2ccccc2)n1",
    "obs.value": -0.0499
  },
  {
    "compound": "N#Cc1cnn(-c2ccccc2)c1NC(=O)CCl",
    "obs.value": -0.123
  },
  {
    "compound": "O=C(CCl)N1CCC(OCc2ccccc2F)CC1",
    "obs.value": -0.148
  },
  {
    "compound": "Cl.O=C(CCl)N1CCc2ncncc2C1",
    "obs.value": -0.0201
  },
  {
    "compound": "CC(NC(=O)CCl)c1cccc(Cl)c1 (configuration not stated)",
    "obs.value": -0.0887
  },
  {
    "compound": "N#Cc1ccc(Cl)cc1NC(=O)CCl",
    "obs.value": 0.289
  },
  {
    "compound": "Cl.O=C(CCl)NCCc1ncc(F)cc1F",
    "obs.value": 0.213
  },
  {
    "compound": "O=C(CCl)N1CCC(c2ccn[nH]2)C1 (configuration not stated)",
    "obs.value": 0.121
  },
  {
    "compound": "Cc1nc(CNC(=O)CCl)c2ccccn12.Cl",
    "obs.value": -0.109
  },
  {
    "compound": "Cl.O=C(CCl)N1CCC(n2nc3ccccc3n2)CC1",
    "obs.value": -0.532
  },
  {
    "compound": "O=C(CCl)N1CCC(c2nc3ccccc3o2)CC1",
    "obs.value": -0.0083
  },
  {
    "compound": "O=C(CCl)N1CCOCC1C1CC1 (configuration not stated)",
    "obs.value": 0.143
  },
  {
    "compound": "Cc1cccc(N(CCC#N)C(=O)CCl)c1C",
    "obs.value": -0.0126
  },
  {
    "compound": "N#Cc1ccccc1N1CCN(C(=O)CCl)CC1",
    "obs.value": -0.271
  },
  {
    "compound": "CC(=O)Nc1ccc(NC(=O)CCl)cc1",
    "obs.value": -0.0874
  }
]

* * *

experimental.system: USP9X (UniProt Q93008)
Sequence (Q93008 whole entry, the tested form may be a part): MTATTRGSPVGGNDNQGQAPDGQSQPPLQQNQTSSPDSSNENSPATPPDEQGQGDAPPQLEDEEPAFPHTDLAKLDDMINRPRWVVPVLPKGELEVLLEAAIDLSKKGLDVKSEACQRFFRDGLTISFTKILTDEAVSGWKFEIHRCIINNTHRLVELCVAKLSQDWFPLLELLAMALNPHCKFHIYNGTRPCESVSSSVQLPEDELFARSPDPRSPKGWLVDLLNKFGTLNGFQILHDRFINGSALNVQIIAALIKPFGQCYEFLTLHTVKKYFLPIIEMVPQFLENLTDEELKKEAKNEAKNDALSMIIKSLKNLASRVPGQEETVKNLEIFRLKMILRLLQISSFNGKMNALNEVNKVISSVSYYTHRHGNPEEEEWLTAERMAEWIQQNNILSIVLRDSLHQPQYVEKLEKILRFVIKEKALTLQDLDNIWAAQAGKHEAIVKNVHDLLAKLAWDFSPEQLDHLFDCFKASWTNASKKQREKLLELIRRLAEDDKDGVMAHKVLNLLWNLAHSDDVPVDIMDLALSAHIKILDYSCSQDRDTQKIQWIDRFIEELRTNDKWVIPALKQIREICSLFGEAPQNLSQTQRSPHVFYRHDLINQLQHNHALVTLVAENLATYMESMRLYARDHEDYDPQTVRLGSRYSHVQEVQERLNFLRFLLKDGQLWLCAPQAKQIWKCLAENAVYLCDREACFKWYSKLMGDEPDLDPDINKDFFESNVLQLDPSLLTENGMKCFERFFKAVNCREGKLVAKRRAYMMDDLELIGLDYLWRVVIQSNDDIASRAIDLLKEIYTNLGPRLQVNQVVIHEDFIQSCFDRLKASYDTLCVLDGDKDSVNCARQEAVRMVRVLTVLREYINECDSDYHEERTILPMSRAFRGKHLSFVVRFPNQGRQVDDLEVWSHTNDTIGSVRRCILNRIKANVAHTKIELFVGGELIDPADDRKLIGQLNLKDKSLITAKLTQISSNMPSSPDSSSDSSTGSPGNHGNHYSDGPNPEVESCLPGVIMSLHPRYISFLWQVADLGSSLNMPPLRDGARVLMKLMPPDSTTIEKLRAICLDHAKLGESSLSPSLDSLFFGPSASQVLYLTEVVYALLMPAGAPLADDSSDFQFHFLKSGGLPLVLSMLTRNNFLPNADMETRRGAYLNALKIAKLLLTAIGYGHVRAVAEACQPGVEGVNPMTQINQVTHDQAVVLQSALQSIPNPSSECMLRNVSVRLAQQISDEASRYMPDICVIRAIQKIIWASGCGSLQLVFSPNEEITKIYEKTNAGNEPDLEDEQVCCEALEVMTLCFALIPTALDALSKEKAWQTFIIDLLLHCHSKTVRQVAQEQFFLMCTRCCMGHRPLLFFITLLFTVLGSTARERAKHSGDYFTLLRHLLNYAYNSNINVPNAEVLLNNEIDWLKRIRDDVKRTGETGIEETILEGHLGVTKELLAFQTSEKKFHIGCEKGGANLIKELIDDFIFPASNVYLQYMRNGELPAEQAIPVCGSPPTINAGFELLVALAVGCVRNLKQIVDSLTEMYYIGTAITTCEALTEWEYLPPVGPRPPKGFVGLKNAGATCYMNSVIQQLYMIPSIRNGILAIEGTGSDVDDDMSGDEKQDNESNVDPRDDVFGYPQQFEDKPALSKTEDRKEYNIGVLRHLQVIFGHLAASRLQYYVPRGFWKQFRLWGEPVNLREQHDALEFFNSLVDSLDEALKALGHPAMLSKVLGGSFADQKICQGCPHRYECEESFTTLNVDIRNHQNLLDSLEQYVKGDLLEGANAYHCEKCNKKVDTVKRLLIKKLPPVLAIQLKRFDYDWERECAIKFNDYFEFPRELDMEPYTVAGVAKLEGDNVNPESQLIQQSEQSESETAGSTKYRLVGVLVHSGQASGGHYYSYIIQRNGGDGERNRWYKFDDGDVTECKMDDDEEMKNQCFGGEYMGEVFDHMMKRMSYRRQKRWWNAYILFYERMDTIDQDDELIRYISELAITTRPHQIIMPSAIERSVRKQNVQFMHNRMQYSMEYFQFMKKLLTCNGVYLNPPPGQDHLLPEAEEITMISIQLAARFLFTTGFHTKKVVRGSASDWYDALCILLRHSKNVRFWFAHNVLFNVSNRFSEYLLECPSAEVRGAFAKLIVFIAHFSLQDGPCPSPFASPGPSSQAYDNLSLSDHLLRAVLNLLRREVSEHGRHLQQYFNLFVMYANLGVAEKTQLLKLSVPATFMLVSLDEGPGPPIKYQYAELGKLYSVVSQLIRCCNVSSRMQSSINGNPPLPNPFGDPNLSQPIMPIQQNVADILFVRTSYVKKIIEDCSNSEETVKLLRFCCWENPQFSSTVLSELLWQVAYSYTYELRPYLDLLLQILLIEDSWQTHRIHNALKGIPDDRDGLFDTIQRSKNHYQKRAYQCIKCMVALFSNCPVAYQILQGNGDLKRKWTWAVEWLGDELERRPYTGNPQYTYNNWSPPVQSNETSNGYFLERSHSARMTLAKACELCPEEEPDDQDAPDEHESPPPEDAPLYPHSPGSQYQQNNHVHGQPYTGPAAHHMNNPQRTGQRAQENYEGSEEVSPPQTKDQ
test.summary: log2 ratio of Biotin-Ahx-Ub-VS probe labelling (fragment/DMSO); higher = less target engagement (more negative = stronger competition), active = hit call of the paper (q ≤ 0.05, log2 ratio ≤ -1)
measurement.setup: compound concentration: 200 uM; treatment time: 3 h
measured.attribute: log2 ratio of Biotin-Ahx-Ub-VS probe labelling

[
  {
    "compound": "CN(Cc1nc2ccccc2[nH]1)C(=O)CCl.Cl",
    "obs.value": -0.057
  },
  {
    "compound": "Cc1cc(C2CCCN2C(=O)CCl)nn1C.Cl (stereo not given)",
    "obs.value": -0.131
  },
  {
    "compound": "Cl.O=C(CCl)NCCN1CCc2ccccc21",
    "obs.value": -0.798
  },
  {
    "compound": "CCCn1nccc1NC(=O)CCl",
    "obs.value": -0.239
  },
  {
    "compound": "O=C(CCl)N1CCCC2CCCCC21 (stereo not given)",
    "obs.value": -0.183
  },
  {
    "compound": "O=C(CCl)N1CCOC(c2cccc(F)c2)C1 (stereo not given)",
    "obs.value": -0.504
  },
  {
    "compound": "O=C(CCl)Nc1ccc(F)cc1Cl",
    "obs.value": -0.538
  },
  {
    "compound": "O=C(CCl)N1CCC(c2nc3ccccc3o2)CC1",
    "obs.value": -0.351
  },
  {
    "compound": "CNC(=O)C1(NC(=O)CCl)CCCCC1",
    "obs.value": -0.228
  },
  {
    "compound": "O=C(CCl)N1CCC(C(=O)N2CCCCCC2)CC1",
    "obs.value": -0.297
  },
  {
    "compound": "Cl.O=C(CCl)NCc1ccnc(Oc2ccccc2F)c1",
    "obs.value": -0.17
  },
  {
    "compound": "Cl.O=C(CCl)NCCc1ncc(F)cc1F",
    "obs.value": -0.419
  },
  {
    "compound": "O=C(CCl)NC1CCC(C(F)(F)F)CC1 (stereo not given)",
    "obs.value": -0.178
  },
  {
    "compound": "C#Cc1cccc(NC(=O)CCl)c1",
    "obs.value": -0.146
  },
  {
    "compound": "Cc1c(NC(=O)CCl)c(=O)n(-c2ccccc2)n1C",
    "obs.value": 0.00112
  },
  {
    "compound": "Cc1conc1C1CN(C(=O)CCl)C1",
    "obs.value": -0.803
  },
  {
    "compound": "O=C(CCl)Nc1ccc(Cl)c(F)c1",
    "obs.value": -0.282
  },
  {
    "compound": "CC(NC(=O)CCl)c1noc(Cc2ccccc2)n1 (stereo not given)",
    "obs.value": -0.262
  },
  {
    "compound": "C/C(=C\\CNC(=O)CCl)c1cnn(C)c1.Cl",
    "obs.value": -0.138
  },
  {
    "compound": "CC(NC(=O)CCl)c1cccc2ccccc12 (stereo not given)",
    "obs.value": -0.285
  },
  {
    "compound": "Cl.O=C(CCl)N1CCc2ncncc2C1",
    "obs.value": -0.425
  },
  {
    "compound": "CS(=O)(=O)N1CCCN(C(=O)CCl)CC1",
    "obs.value": -0.177
  },
  {
    "compound": "Cc1cc(CC(C)NC(=O)CCl)n[nH]1 (stereo not given)",
    "obs.value": -0.345
  },
  {
    "compound": "Cc1ccc(CC(CO)CNC(=O)CCl)cc1 (stereo not given)",
    "obs.value": -0.363
  },
  {
    "compound": "O=C(CCl)N1CCC(O)(Cc2ccc(F)cc2)C1 (stereo not given)",
    "obs.value": 0.0751
  },
  {
    "compound": "CN(C(=O)CCl)c1nc2ccccc2s1",
    "obs.value": -0.325
  },
  {
    "compound": "CC1CN(c2ccc(NC(=O)CCl)cc2)CC(C)O1 (stereo not given)",
    "obs.value": -0.166
  },
  {
    "compound": "O=C(CCl)N1CCCCC12CCOCC2",
    "obs.value": -0.584
  },
  {
    "compound": "Cc1cc(Cl)ccc1NC(=O)CCl",
    "obs.value": -0.0827
  },
  {
    "compound": "CN(CCC(O)c1ccc(Br)cc1)C(=O)CCl (stereo not given)",
    "obs.value": -0.275
  },
  {
    "compound": "CCC(NC(=O)CCl)c1ccc(Cl)cc1 (stereo not given)",
    "obs.value": -0.112
  },
  {
    "compound": "Cc1ccccc1C1(CNC(=O)CCl)CCOCC1",
    "obs.value": -0.0641
  },
  {
    "compound": "Cc1cccc(N(CCC#N)C(=O)CCl)c1C",
    "obs.value": 0.0273
  },
  {
    "compound": "O=C(CCl)N1CCOC(CCc2ccccc2)C1 (stereo not given)",
    "obs.value": -0.43
  },
  {
    "compound": "Cc1cc(NC(=O)CCl)n(-c2ccccc2)n1",
    "obs.value": 0.0409
  },
  {
    "compound": "CNC(=O)C1CCN(C(=O)CCl)CC1",
    "obs.value": -0.107
  },
  {
    "compound": "O=C(CCl)N1CCc2ccccc2C(O)C1 (stereo not given)",
    "obs.value": -0.333
  },
  {
    "compound": "O=C(CCl)Nc1cc2c(cc1Cl)OCCO2",
    "obs.value": -0.246
  },
  {
    "compound": "Cl.Cn1cnc2cc(CNC(=O)CCl)ccc21",
    "obs.value": -0.0792
  },
  {
    "compound": "O=C(CCl)N[C@H]1CC[C@@H](CO)CC1",
    "obs.value": -0.905
  },
  {
    "compound": "CN(C)C(=O)c1ccc(NC(=O)CCl)cc1",
    "obs.value": -0.0881
  },
  {
    "compound": "CC(c1ccccc1)N(C)C(=O)CCl (stereo not given)",
    "obs.value": -0.115
  },
  {
    "compound": "O=C(CCl)N1CCOC2(CCC2)C1",
    "obs.value": 0.105
  },
  {
    "compound": "Cl.Cn1ncc2c1CCCC2NC(=O)CCl (stereo not given)",
    "obs.value": -0.000676
  },
  {
    "compound": "O=C(CCl)N(Cc1ccsc1)C1CC1",
    "obs.value": -0.139
  }
]

Reference source: the supplement of paper PMC11732987
